- Assay System: keratin (substrate of the keratinase activity assay)
Measure Name: Km (µM)

| Protein | Data Value |
| --- | --- |
| keratinase double mutant N181D-T218S (protein) AQTVPYGIPQIKAPAVHAQGYKGANVKVAVLDTGIHAAHPDLNVAGGASFVPSEPNATQDFQSHGTHVAGTIAALDNTIGVLGVAPSASLYAVKVLDRYGDGQYSWIISGIEWAVANNMDVINMSLGGPSGSTALKNTVDTANNRGVVVVAAAGNSGSSGSSSTVGYPAKYDSTIAVANVDSNNVRNSSSSAGPELDVSAPGTSILSTVPSSGYTSYSGTSMASPHVAGAAALILSKNPNLTNSQVRQRLENTATPLGDSFYYGKGLINVQAASN | 1800 |
| keratinase mutant T218S (protein) AQTVPYGIPQIKAPAVHAQGYKGANVKVAVLDTGIHAAHPDLNVAGGASFVPSEPNATQDFQSHGTHVAGTIAALDNTIGVLGVAPSASLYAVKVLDRYGDGQYSWIISGIEWAVANNMDVINMSLGGPSGSTALKNTVDTANNRGVVVVAAAGNSGSSGSSSTVGYPAKYDSTIAVANVNSNNVRNSSSSAGPELDVSAPGTSILSTVPSSGYTSSTGTSMASPHVAGAAALILSKNPNLTNSQVRQRLENTATPLGDSFYYGKGLINVQAASN | 1500 |
| keratinase derived from Brevibacillus parabrevis (CGMCC No. 10798), parent keratinase (protein) AQTVPYGIPQIKAPAVHAQGYKGANVKVAVLDTGIHAAHPDLNVAGGASFVPSEPNATQDFQSHGTHVAGTIAALDNTIGVLGVAPSASLYAVKVLDRYGDGQYSWIISGIEWAVANNMDVINMSLGGPSGSTALKNTVDTANNRGVVVVAAAGNSGSSGSSSTVGYPAKYDSTIAVANVNSNNVRNSSSSAGPELDVSAPGTSILSTVPSSGYTSYTGTSMASPHVAGAAALILSKNPNLTNSQVRQRLENTATPLGDSFYYGKGLINVQAASN | 2100 |
| keratinase mutant S236C (protein) AQTVPYGIPQIKAPAVHAQGYKGANVKVAVLDTGIHAAHPDLNVAGGASFVPSEPNATQDFQSHGTHVAGTIAALDNTIGVLGVAPSASLYAVKVLDRYGDGQYSWIISGIEWAVANNMDVINMSLGGPSGSTALKNTVDTANNRGVVVVAAAGNSGSSGSSSTVGYPAKYDSTIAVANVNSNNVRNSSSSAGPELDVSAPGTSILSTVPSSGYTSYTGTSMASPHVAGAAALILCKNPNLTNSQVRQRLENTATPLGDSFYYGKGLINVQAASN | 2200 |
| keratinase mutant N181D (protein) AQTVPYGIPQIKAPAVHAQGYKGANVKVAVLDTGIHAAHPDLNVAGGASFVPSEPNATQDFQSHGTHVAGTIAALDNTIGVLGVAPSASLYAVKVLDRYGDGQYSWIISGIEWAVANNMDVINMSLGGPSGSTALKNTVDTANNRGVVVVAAAGNSGSSGSSSTVGYPAKYDSTIAVANVDSNNVRNSSSSAGPELDVSAPGTSILSTVPSSGYTSYTGTSMASPHVAGAAALILSKNPNLTNSQVRQRLENTATPLGDSFYYGKGLINVQAASN | 1900 |
